test_system: CXCR3 (Macaca fascicularis, UniProt A0A2K5UV19)
Sequence (A0A2K5UV19 entry or part of it): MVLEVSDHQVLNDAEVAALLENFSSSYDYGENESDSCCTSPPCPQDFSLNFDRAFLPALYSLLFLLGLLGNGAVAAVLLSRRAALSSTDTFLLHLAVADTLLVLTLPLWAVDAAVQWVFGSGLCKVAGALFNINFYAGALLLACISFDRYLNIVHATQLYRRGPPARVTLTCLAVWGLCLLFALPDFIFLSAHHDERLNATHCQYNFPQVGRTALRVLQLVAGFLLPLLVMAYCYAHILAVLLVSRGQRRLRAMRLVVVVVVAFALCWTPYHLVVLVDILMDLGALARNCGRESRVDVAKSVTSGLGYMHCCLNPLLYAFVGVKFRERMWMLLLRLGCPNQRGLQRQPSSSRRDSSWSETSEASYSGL
method: functional cellular assay measuring calcium flux in CXCR3 transfected cells (block of CXCR3/IP-10 interaction)
Format: cell-based, Cyno
experimental_context: IP-10 induced intracellular calcium flux; Cyno-CHO cells stably expressing recombinant CXCR3 and G-alpha-16; IP-10 at EC80; read-out: IC50
pIC50: −log10 of the molar value.
outcome_measure: pIC50

>>> print(df.to_string())
                                    compound  quantitative_readout
 0  CC1CN(c2ccccc2-c2cnc(N3CCC(O)CC3)nc2)CCN1C(=O)CN1CCCCC1=O (stereo not drawn)                  7.72
 1  CC(C)C(=O)N(C)CC(=O)N1CCN(c2ccc(F)cc2C(=O)Nc2nc3c(s2)CN(C)CC3)C[C@@H]1C                  7.85
 2  CSc1ncc(-c2cc(C#N)ccc2N2CCN(C(=O)Cn3ccc4cccnc43)CC2)cn1                  8.40
 3  COc1ncc(-c2cc(F)ccc2N2CCN(C(=O)Cn3cnc4cccnc43)CC2)cn1                  7.28
 4  CS(=O)(=O)C1CCN(c2ncc(-c3cc(F)ccc3N3CCN(C(=O)Cn4ccc5cccnc54)CC3)cn2)CC1                  8.05
 5  Cc1cc(C)n(CC(=O)N2CCN(c3ccccc3-c3cnc(N4CCC(S(C)(=O)=O)CC4)nc3)CC2C)n1 (stereo not drawn)                  8.05
 6  Cc1cc(C)n(CC(=O)N2CCN(c3ccccc3-c3cnc(N4CCC(O)CC4)nc3)CC2)n1                  8.15
 7  CC1CN(c2ccc(C(F)(F)F)cc2-c2cnc(S(C)(=O)=O)nc2)CCN1C(=O)Cn1c(=O)[nH]c2ccccc21 (stereo not drawn)                  7.70
 8  CC1CN(c2ccc(C(F)(F)F)cc2-c2cnc(N3CCC(S(C)(=O)=O)CC3)nc2)CCN1C(=O)CN1Cc2ccccc2C1=O (stereo not drawn)                  8.15
 9  COc1ncc(-c2cc(Cl)ccc2N2CCN(C(=O)Cn3nc(C)cc3C)CC2)cn1                  7.92
10  Cc1cn(CC(=O)N2CCN(c3ccccc3-c3ccc(C#N)nc3)CC2)c(C)n1                  7.33
11  O=C(Cn1ccc2cccnc21)N1CCN(c2ccc(Cl)cc2-c2cnc(N3CCOCC3)nc2)CC1                  7.89
12  Cc1cc(C)n(CC(=O)N2CCN(c3ccccc3-c3cnc(N4CCCC4)nc3)CC2)n1                  8.15
13  COc1ncc(-c2ccccc2N2CCN(C(=O)Cn3nc(C)cc3C)CC2)cn1                  7.34
14  O=C(Cn1ccc2ccncc21)N1CCN(c2ccc(F)cc2-c2cnc(N3CCC(O)CC3)nc2)CC1                  8.00
15  CS(=O)(=O)c1ncc(-c2cc(F)ccc2N2CCN(C(=O)CN3Cc4ccccc4C3=O)CC2)cn1                  6.60
16  Cc1cc(C)n(CC(=O)N2CCN(c3ccc(F)cc3-c3cnc(N4CCC(O)CC4)nc3)CC2)n1                  8.05
17  Cc1cc(C)n(CC(=O)N2CCN(c3ccccc3-c3cnc(N4CCCOCC4)nc3)CC2)n1                  7.96
18  Cc1ccc(-c2ccccc2N2CCN(C(=O)Cn3nc(C)cc3C)CC2)cc1                  7.15
19  C[C@H]1CN(c2ccc(F)cc2C(=O)Nc2nc3c(s2)CN(C)CC3)CCN1C(=O)CN1Cc2ccccc2C1=O                  7.82
20  COc1cc(NC(=O)c2cc(F)ccc2N2CCN(C(=O)CN3CCCCC3=O)[C@@H](C)C2)ccn1                  8.10
21  CC1CN(c2ccccc2-c2cnc(S(C)(=O)=O)nc2)CCN1C(=O)Cn1c(=O)[nH]c2ccccc21 (stereo not drawn)                  7.20
22  Cc1cc(C)n(CC(=O)N2CCN(c3ccccc3-c3cnc(N4CCC(C(N)=O)CC4)nc3)CC2)n1                  8.22
23  O=C(CN1Cc2ccccc2C1=O)N1CCN(c2ccc(F)cc2-c2cnc(N3CCOCC3)nc2)CC1                  7.64
24  CNc1ncc(-c2cc(C#N)ccc2N2CCN(C(=O)Cn3ccc4cccnc43)CC2)cn1                  8.10
25  CS(=O)(=O)C1CCN(c2ncc(-c3cc(F)ccc3N3CCN(C(=O)Cn4c(=O)[nH]c5ccccc54)CC3)cn2)CC1                  8.15
26  COc1ncc(-c2cc(Cl)ccc2N2CCN(C(=O)Cn3ccc4cccnc43)CC2)cn1                  8.15
27  C[C@H]1CN(c2ccc(F)cc2C(=O)Nc2nc3c(s2)CN(C)CC3)CCN1C(=O)Cn1cnc2cccnc21                  7.82
28  CC1CN(c2ccc(C(F)(F)F)cc2-c2cnc(N3CCC(S(C)(=O)=O)CC3)nc2)CCN1C(=O)Cn1c(=O)[nH]c2ccccc21 (stereo not drawn)                  8.10
29  CN1CCN(c2ncc(-c3cc(F)ccc3N3CCN(C(=O)Cn4ccc5cccnc54)CC3)cn2)CC1                  7.70

---

test_system: CXCR3 (Macaca fascicularis)
method: functional cellular assay measuring calcium flux in CXCR3 transfected cells (block of CXCR3/IP-10 interaction)
Assay type: cell-based, Cyno
experimental_context: IP-10 induced intracellular calcium flux; Cyno-CHO cells stably expressing recombinant CXCR3 and G-alpha-16; IP-10 at EC80; read-out: IC50
# T = IC50 below 20 nM (exclusive); F = IC50 at/above 20 nM

>>> print(df.to_string())
                                    compound  category_label
 0  CSc1ncc(-c2ccccc2N2CCN(C(=O)Cn3ccc4cccnc43)CC2)cn1               T
 1  CS(=O)(=O)c1ncc(-c2cc(F)ccc2N2CCN(C(=O)Cn3cnc4cccnc43)CC2)cn1               F
 2  O=C(Cn1ccc2cccnc21)N1CCN(c2ccccc2-c2ccnc(N3CCOCC3)c2)CC1               T
 3  COc1cc(NC(=O)c2cc(F)ccc2N2CCN(C(=O)CN3CCCCC3=O)[C@H](C)C2)ccn1               T
 4  O=C(CNc1ccncc1)N1CCN(c2ccccc2-c2cnc(N3CCOCC3)nc2)CC1               F
 5  COc1ncc(-c2cc(F)ccc2N2CCN(C(=O)Cn3nc(C)cc3C)CC2)cn1               T
 6  CC1CN(c2ccc(C(F)(F)F)cc2-c2cnc(N3CCC(O)CC3)nc2)CCN1C(=O)Cn1ccc2cccnc21 (stereo not drawn)               T
 7  COc1ncc(-c2cc(F)ccc2N2CCN(C(=O)Cn3ccc4cccnc43)CC2)cn1               T
 8  COc1ncc(-c2ccccc2N2CCN(C(=O)Cn3cnc4cccnc43)CC2)cn1               T
 9  COc1cc(NC(=O)c2cc(F)ccc2N2CCN(C(=O)Cn3ccc4ccncc43)[C@@H](C)C2)ccn1               T
10  Cc1cc(C)n(CC(=O)N2CCN(c3ccccc3-c3cnc(N4CCCC(C(N)=O)C4)nc3)CC2)n1 (stereo not drawn)               T
11  COc1ncc(-c2cc(F)ccc2N2CCN(C(=O)CN3CCCCC3=O)CC2)cn1               F
12  CCOc1ncc(-c2ccccc2N2CCN(C(=O)Cn3nc(C)cc3C)CC2)cn1               T
13  O=C(Cn1c(=O)[nH]c2ccccc21)N1CCN(c2ccc(F)cc2-c2cnc(N3CCCC3)nc2)CC1               T
14  CC1CN(c2ccc(C(F)(F)F)cc2-c2cnc(S(C)(=O)=O)nc2)CCN1C(=O)CN1CCCCC1=O (stereo not drawn)               F
15  C[C@H]1CN(c2ccc(F)cc2C(=O)Nc2nc3c(s2)CN(C)CC3)CCN1C(=O)Cn1c(=O)[nH]c2ccccc21               T
16  CNC(=O)C1CCN(c2ncc(-c3ccccc3N3CCN(C(=O)Cn4nc(C)cc4C)CC3)cn2)CC1               T

---

test_system: CXCR3 (Macaca fascicularis)
method: functional cellular assay measuring calcium flux in CXCR3 transfected cells (block of CXCR3/IP-10 interaction)
Assay type: cell-based, Cyno
experimental_context: IP-10 induced intracellular calcium flux; Cyno-CHO cells stably expressing recombinant CXCR3 and G-alpha-16; IP-10 at EC80; read-out: IC50
pIC50: −log10 of the molar value.
outcome_measure: pIC50

In [3]: df
Out[3]:
                                    compound  quantitative_readout
 0  Cc1cc(C)n(CC(=O)N2CCN(c3ccccc3-c3cnc(N4CCC(F)(F)CC4)nc3)CC2)n1                  7.66
 1  O=C(Cn1cnc2cccnc21)N1CCN(c2ccc(F)cc2-c2cnc(N3CCC(O)CC3)nc2)CC1                  8.10
 2  Cc1cc(C)n(CC(=O)N2CCN(c3ccccc3-c3cnc(N4CC[C@@H](N(C)C)C4)nc3)CC2)n1                  8.40
 3  Cc1cc(C)n(CC(=O)N2CCN(c3ccccc3-c3cnc(N4CC(C)OC(C)C4)nc3)CC2)n1 (stereo not drawn)                  8.22
 4  Cc1cc(C)n(CC(=O)N2CCN(c3ccccc3-c3cnc(N4CCC(O)CC4)nc3)CC2C)n1 (stereo not drawn)                  7.89
 5  COc1ncc(-c2cc(C(F)(F)F)ccc2N2CCN(C(=O)Cn3ccc4cccnc43)CC2)cn1                  8.10
 6  N#Cc1ccc(N2CCN(C(=O)Cn3ccc4cccnc43)CC2)c(-c2cnc(N3CCOCC3)nc2)c1                  8.10
 7  C[C@@H]1CN(c2ccc(F)cc2C(=O)Nc2nc3c(s2)CN(C)CC3)CCN1C(=O)Cn1ccc2cccnc21                  7.70
 8  N#Cc1ccc(-c2ccccc2N2CCN(C(=O)Cn3ccc4cccnc43)CC2)cn1                  8.30
 9  Cc1cc(C)n(CC(=O)N2CCN(c3ccc(F)cc3-c3cnc(N4CCC(S(C)(=O)=O)CC4)nc3)CC2C)n1 (stereo not drawn)                  8.00
10  CC1CN(c2ccc(F)cc2-c2cnc(N3CCC(S(C)(=O)=O)CC3)nc2)CCN1C(=O)Cn1c(=O)[nH]c2ccccc21 (stereo not drawn)                  8.05
11  CC1CN(c2ccccc2-c2cnc(N3CCC(S(C)(=O)=O)CC3)nc2)CCN1C(=O)Cn1ccc2cccnc21 (stereo not drawn)                  8.05
